B1: tRNA (parent)
chain: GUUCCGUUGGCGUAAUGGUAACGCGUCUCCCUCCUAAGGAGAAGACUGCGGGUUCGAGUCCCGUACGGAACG

Variants of: B1
Assay: yeast fitness relative to wild type (ratio to wild type); higher = fitter; tRNA-Arg(CCU), competitive growth, 37 C, YPD
Fewer inactive variants are shown than the library holds.
Please provide measured yeast fitness for the entries that follow.

query: Look at this variant and give its reported yeast fitness. C11A A15U U16C A21U A36C A37U
result: ≤ 0.5

query: Look at this variant and give its reported yeast fitness. C33U G48A
result: 0.678

query: Look at this variant and give its reported yeast fitness. C31G G41A A65C
result: ≤ 0.5

query: Look at this variant and give its reported yeast fitness. U13G C22U C31A
result: 0.552

query: Look at this variant and give its reported yeast fitness. C22A G51C A69U
result: 0.74

query: Look at this variant and give its reported yeast fitness. G23C C24A G50A A70U
result: ≤ 0.5

query: Look at this variant and give its reported yeast fitness. C5A U35C
result: 0.869

query: Look at this variant and give its reported yeast fitness. C30A A40C G56A
result: ≤ 0.5

query: Look at this variant and give its reported yeast fitness. A21U U28G C55A G58A
result: ≤ 0.5

query: Look at this variant and give its reported yeast fitness. G23C U47G
result: 0.626

query: Look at this variant and give its reported yeast fitness. U7A A20C A69C
result: 0.609
